Tested on: collagen I
Assay: Collagen I expression in human HaCaT cells (western blot)
Type: cell-based
Settings: 0.1 μM, relative to 0 μM = 1.00
Listing of recorded Collagen I in cell by entry.
Please give the numeric answer without any surrounding text.

Solved cases (3 shown):
[[record]]
molecule = "CC(=O)O[C@@H]1[C@@H](O)[C@H](O[C@H]2CC[C@]34C[C@]35CC[C@]3(C)[C@@H]([C@@]6(C)CC[C@@H](C(C)(C)O)O6)[C@@H](O)C[C@@]3(C)[C@@H]5C[C@H](O[C@@H]3O[C@H](CO)[C@@H](O)[C@H](O)[C@H]3O)[C@H]4C2(C)C)OC[C@H]1O [isoAS2, isoastragaloside II]"
tested_on = "collagen I"
attribute_measured = "Collagen I in cell"
test_result = 0.94

[[record]]
molecule = "CC(=O)O[C@H]1[C@H](O[C@H]2CC[C@]34C[C@]35CC[C@]3(C)[C@@H]([C@@]6(C)CC[C@@H](C(C)(C)O)O6)[C@@H](O)C[C@@]3(C)[C@@H]5C[C@H](O[C@@H]3O[C@H](CO)[C@@H](O)[C@H](O)[C@H]3O)[C@H]4C2(C)C)OC[C@@H](O)[C@@H]1O [AS2, astragaloside II]"
tested_on = "collagen I"
attribute_measured = "Collagen I in cell"
test_result = 1.14

[[record]]
molecule = "CC(=O)O[C@H]1[C@H](O[C@H]2CC[C@]34C[C@]35CC[C@]3(C)[C@@H]([C@@]6(C)CC[C@@H](C(C)(C)O)O6)[C@@H](O)C[C@@]3(C)[C@@H]5C[C@H](O[C@@H]3O[C@H](CO)[C@@H](O)[C@H](O)[C@H]3O)[C@H]4C2(C)C)OC[C@@H](OC(C)=O)[C@@H]1O [isoAS1, isoastragaloside I]"
tested_on = "collagen I"
attribute_measured = "Collagen I in cell"
test_result = 1.06


Consider the record given below.
IN: # query: Collagen I in cell of entry CC(C)(O)C1CC[C@](C)(C2[C@@H](O)C[C@@]3(C)C4C[C@H](OC5OC(CO)C(O)C(O)C5O)C5C(C)(C)[C@@H](O)CCC56CC46CC[C@]23C)O1 (stereo partly drawn) [AA, cycloastragenol 6-O-β-D-glucopyranose]
OUT: 3.34

---

Test system: collagen I
Experiment: Collagen I expression and secretion in human HDF cells (western blot)
Type: cell-based
Conditions: 0.1 μM, relative to 0 = 1.00
A collection of compounds and their measured Collagen I in medium

Study these solved cases before continuing.
[[record]]
compound = "CC(C)(O)[C@@H]1CC[C@](C)([C@H]2[C@@H](O)C[C@@]3(C)[C@@H]4C[C@H](O[C@@H]5O[C@H](CO)[C@@H](O)[C@H](O)[C@H]5O)[C@H]5C(C)(C)[C@@H](O[C@@H]6OC[C@@H](O)[C@H](O)[C@H]6O)CC[C@@]56C[C@@]46CC[C@]23C)O1 [AS4, astragaloside IV]"
test_result = 1.11

[[record]]
compound = "CC(C)(O)C1CC[C@](C)(C2[C@@H](O)C[C@@]3(C)C4C[C@H](OC5OC(CO)C(O)C(O)C5O)C5C(C)(C)[C@@H](O)CCC56CC46CC[C@]23C)O1 (stereo partly drawn) [AA, cycloastragenol 6-O-β-D-glucopyranose]"
test_result = 0.95

[[record]]
compound = "CC(=O)O[C@H]1[C@H](O[C@H]2CC[C@]34C[C@]35CC[C@]3(C)[C@@H]([C@@]6(C)CC[C@@H](C(C)(C)O)O6)[C@@H](O)C[C@@]3(C)[C@@H]5C[C@H](O[C@@H]3O[C@H](CO)[C@@H](O)[C@H](O)[C@H]3O)[C@H]4C2(C)C)OC[C@@H](O)[C@@H]1O [AS2, astragaloside II]"
test_result = 1.15

[[record]]
compound = "CC(=O)O[C@H]1[C@H](O[C@H]2CC[C@]34C[C@]35CC[C@]3(C)[C@@H]([C@@]6(C)CC[C@@H](C(C)(C)O)O6)[C@@H](O)C[C@@]3(C)[C@@H]5C[C@H](O[C@@H]3O[C@H](CO)[C@@H](O)[C@H](O)[C@H]3O)[C@H]4C2(C)C)OC[C@@H](OC(C)=O)[C@@H]1O [isoAS1, isoastragaloside I]"
test_result = 1.08


Moving on to the next compound.
IN: Param item = CC(C)(O)[C@@H]1CC[C@](C)([C@H]2[C@@H](O)C[C@@]3(C)[C@@H]4C[C@H](O[C@@H]5O[C@H](CO)[C@@H](O)[C@H](O)[C@H]5O)[C@H]5C(C)(C)[C@@H](O[C@@H]6OC[C@@H](O)[C@H](O)[C@H]6O[C@@H]6O[C@H](CO)[C@@H](O)[C@H](O)[C@H]6O)CC[C@@]56C[C@@]46CC[C@]23C)O1 [AS6, astragaloside VI] ; retrieve measured Collagen I in medium.
OUT: 1.29
